Cited source: PubChem BioAssay (NCI)

System: OVCAR-5 ovarian
Assay: NCI tumour cell line growth inhibition, 48 h
metric: TGI

Lookup: Given the entry `Cn1cc(-c2csc(-c3ccccc3)n2)c2cccnc21` , report its measured TGI.
Found: 32.7 µM

Lookup: Given the entry `COc1ccc2c(O)c1-c1c(OC)ccc(c1O)SSc1ccc(OC)c(c1O)-c1c(OC)ccc(c1O)SS2` , report its measured TGI.
Found: > 100 µM

Lookup: Given the entry `O=c1[nH]c(=O)n([C@H]2C[C@@H](CO)[C@@H](O)C2)cc1I` , report its measured TGI.
Found: > 100 µM

Lookup: Given the entry `N#CCCC1(CCC#N)S(=O)(=O)OCCOS1(=O)=O` , report its measured TGI.
Found: > 100 µM

Lookup: Given the entry `Cc1nn(CNc2ccc(F)c(Cl)c2)c(=S)n1/N=C/c1ccc(-c2ccc(Cl)cc2Cl)o1` , report its measured TGI.
Found: 41.2 µM

Lookup: Given the entry `N#Cc1c(-c2ccccc2)cn(C(=O)c2ccccc2)c1N` , report its measured TGI.
Found: > 100 µM

Lookup: Given the entry `CCCCCCCCCCCCCCCC(=O)NS(=O)(=O)OC[C@H]1O[C@@H](n2cnc3c(N)ncnc32)[C@H](O)[C@@H]1O` , report its measured TGI.
Found: < 0.0339 µM

Lookup: Given the entry `CO/N=C(/C)COc1ccc2c(c1)oc(=O)c1cc(OC)ccc12` , report its measured TGI.
Found: > 100 µM

Lookup: Given the entry `COc1cc2c(Nc3ccc(-c4ccc(N)cc4)cc3)ncnc2c(OC)c1OC` , report its measured TGI.
Found: > 100 µM

Lookup: Given the entry `CCOC(=O)c1sc2nc(SC)nc3c2c1NC(=O)CN3c1ccc(F)cc1` , report its measured TGI.
Found: > 100 µM

Lookup: Given the entry `Cc1ccc(NC(=S)NNC(=S)Nc2ccc(C)cc2)cc1` , report its measured TGI.
Found: > 100 µM

Lookup: Given the entry `O=C(c1ccccc1)c1ccc(N2C(=O)/C(=C/c3ccccc3S)N=C2c2ccccc2)c(N2C(=O)/C(=C/c3ccccc3S)N=C2c2ccccc2)c1` , report its measured TGI.
Found: > 100 µM

Lookup: Given the entry `COc1cc(/C=C2\CCC/C(=C\c3cc(CN4CCCC4)c(O)c(OC)c3)C2=O)cc(CN2CCCC2)c1O` , report its measured TGI.
Found: 13.4 µM

* * *

System: OVCAR-8 ovarian
Assay: NCI tumour cell line growth inhibition, 48 h
metric: TGI

Lookup: Form field - read-out: TGI; system: OVCAR-8 ovarian; submitted item: `CC1(C)N=C(C(N)=O)c2ncn(Cc3ccccc3)c2N1`
Found: > 100 µM

Lookup: Form field - read-out: TGI; system: OVCAR-8 ovarian; submitted item: N#Cc1ccc(C2OCC3CC=CCC3CO2)cc1 (stereo not drawn)
Found: > 100 µM

Lookup: Form field - read-out: TGI; system: OVCAR-8 ovarian; submitted item: `c1ccc(-c2cc3nc4ccccc4nc3cc(-c3ccccc3)[nH][nH]2)cc1`
Found: > 100 µM

* * *

Provide the recorded TGI for the entries that follow.
Test system: OVCAR-3 ovarian
Test: NCI tumour cell line growth inhibition, 48 h
I only need the number, in µM, no unit after it.

Lookup: Form field - read-out: TGI; system: OVCAR-3 ovarian; submitted item: `Clc1nc(Cl)c2ncn(-c3ccccc3)c2n1`
Found: 3.46

Lookup: Form field - read-out: TGI; system: OVCAR-3 ovarian; submitted item: `CN(C)CCC(=O)[C@@]1(O)CC[C@H]2[C@@H]3CC=C4C[C@@H](O)CC[C@]4(C)[C@H]3CC[C@@]21C`
Found: 29.7

Lookup: Form field - read-out: TGI; system: OVCAR-3 ovarian; submitted item: `CC/C(Cl)=N\OC(=O)Nc1ccc(F)c(Cl)c1`
Found: 8.03

Lookup: Form field - read-out: TGI; system: OVCAR-3 ovarian; submitted item: `Cn1cc(-c2csc(-c3ccccc3)n2)c2cccnc21`
Found: 32

Lookup: Form field - read-out: TGI; system: OVCAR-3 ovarian; submitted item: C/C=C\C1OC1(C)c1cc(=O)c2c(C)cc3c(c2o1)C(=O)c1c(O)c(C2CC(C)(N(C)C)C(OC(C)=O)C(C)O2)cc(C2CC(N(C)C)C(O)C(C)O2)c1C3=O (configuration not stated)
Found: 0.0365

Lookup: Form field - read-out: TGI; system: OVCAR-3 ovarian; submitted item: `COc1ccc2nc3cc([N+](=O)[O-])ccc3c(NCCO)c2c1`
Found: 10.2

Lookup: Form field - read-out: TGI; system: OVCAR-3 ovarian; submitted item: `CCCCCCCCCCCCCCCC(=O)NS(=O)(=O)OC[C@H]1O[C@@H](n2cnc3c(N)ncnc32)[C@H](O)[C@@H]1O`
Found: 0.124

* * *

Provide the recorded TGI for the entries that follow.
Tested on: OVCAR-4 ovarian
Test: NCI tumour cell line growth inhibition, 48 h

Lookup: Given the entry `N#CCCC1(CCC#N)S(=O)(=O)OCCOS1(=O)=O` , report its measured TGI.
Found: > 100 µM

Lookup: Given the entry O=C1C(Cl)C(c2ccc(O)cc2)N1n1cnc2ccccc2c1=O (stereo not drawn) , report its measured TGI.
Found: > 94 µM

Lookup: Given the entry `Cn1c2ncccc2n2c(=O)cc(O)cc12` , report its measured TGI.
Found: > 100 µM

* * *

Tested on: SF-539 CNS
Assay: NCI tumour cell line growth inhibition, 48 h
metric: TGI

Lookup: Given the entry `N#CCCC(C#N)(C#N)CCC#N` , report its measured TGI.
Found: > 100 µM

Lookup: Given the entry OC1C2CCCCN2C[C@@H](O)[C@H]1O (stereo partly specified) , report its measured TGI.
Found: > 100 µM

Lookup: Given the entry `Nc1c(S(=O)(=O)O)cc(S(=O)(=O)O)c2ccc(N=Nc3ccccc3)c(O)c12` , report its measured TGI.
Found: > 100 µM

Lookup: Given the entry CC(=O)N1C(c2[nH]c3ccccc3c2Cc2ccccc2)CCN1c1ccccc1 (stereo unspecified) , report its measured TGI.
Found: > 10 µM

Lookup: Given the entry `c1ccc(-c2cc3nc4ccccc4nc3cc(-c3ccccc3)[nH][nH]2)cc1` , report its measured TGI.
Found: > 100 µM

Lookup: Given the entry `O=[N+]([O-])C(C(Cl)=C(Cl)Cl)=C(N1CCCCC1)N1CCCCC1` , report its measured TGI.
Found: > 100 µM

Lookup: Given the entry `Cc1nc(C)c(N2CCN(Cc3ccccc3)CC2)c(=O)[nH]1` , report its measured TGI.
Found: > 100 µM

Lookup: Given the entry `CC1(C)N=C(C(N)=O)c2ncn(Cc3ccccc3)c2N1` , report its measured TGI.
Found: > 100 µM

Lookup: Given the entry `NC(=O)c1c[nH]c2ncnc(N)c12` , report its measured TGI.
Found: > 100 µM

Lookup: Given the entry `CC(=O)[O-].CC(=O)[O-].O=C([CH-]C(=O)c1ccccc1)c1ccccc1.[Nd+3].[OH3+]` , report its measured TGI.
Found: 93.5 µM

Lookup: Given the entry `O=c1[nH]c(=O)n([C@H]2C[C@@H](CO)[C@@H](O)C2)cc1I` , report its measured TGI.
Found: > 100 µM

Lookup: Given the entry `COc1ccc2nc3cc([N+](=O)[O-])ccc3c(NCCO)c2c1` , report its measured TGI.
Found: 13 µM

Lookup: Given the entry CN1CCS(=O)(=O)NC(Cc2ccccc2)C(=O)N2CCCC2C1=O (stereo unspecified) , report its measured TGI.
Found: > 100 µM

Lookup: Given the entry `COc1ccc2nc3cccc([N+](=O)[O-])c3c(NCCC(=O)O)c2c1` , report its measured TGI.
Found: > 10 µM

Lookup: Given the entry `Clc1nc(Cl)c2ncn(-c3ccccc3)c2n1` , report its measured TGI.
Found: 27.3 µM

Lookup: Given the entry `CC(=O)Oc1ccc2c(=O)c(C(C)=O)coc2c1` , report its measured TGI.
Found: > 100 µM

Lookup: Given the entry `Cc1ccc(NC(=O)c2cccc(OP(=O)(Nc3ccc(C)cc3)Nc3ccc(C)cc3)c2)cc1` , report its measured TGI.
Found: > 100 µM

Lookup: Given the entry `O=C(Nn1c(-c2ccccc2)nc2ccccc2c1=O)c1cccc([N+](=O)[O-])c1` , report its measured TGI.
Found: > 100 µM

Lookup: Given the entry `CCOC(=O)C(C(=O)OCC)c1cc(-c2cc3ccccc3o2)oc(=O)c1C#N` , report its measured TGI.
Found: 36.8 µM

Lookup: Given the entry `CCOC(=O)C(C(=O)OCC)=C1C=C(c2ccccc2)c2ccccc21` , report its measured TGI.
Found: > 100 µM

Lookup: Given the entry `Cc1ccc(NC(=S)NNC(=S)Nc2ccc(C)cc2)cc1` , report its measured TGI.
Found: > 100 µM

Lookup: Given the entry COc1ccc2c(c1)OCC1c3cc(OC)c4ccccc4c3OC21 (stereo unspecified) , report its measured TGI.
Found: > 100 µM

Lookup: Given the entry `O=C1c2ccccc2C(=O)c2c1oc1cc(O)c(Cl)cc21` , report its measured TGI.
Found: 16.1 µM

Lookup: Given the entry C/C(=C\[Si](C)(C)c1ccco1)C(C)(O)[C@H](C)O (stereo partly specified) , report its measured TGI.
Found: > 100 µM

Lookup: Given the entry `CCOC(=O)CCc1c(C)c2c(OC)cc(OC)cc2oc1=O` , report its measured TGI.
Found: > 100 µM

Lookup: Given the entry CC(CC(=O)N1C2CC3CCC2(CS1(=O)=O)C3(C)C)[Si](C)(C)C (stereo unspecified) , report its measured TGI.
Found: > 100 µM
